Cited source for all entries: patent US20250074980A1

Target: T1, CEACAM6 on transfected HeLa cells (human, UniProt P40199 35-320)
T1 construct: whole, on cells; also called HeLa-CEACAM6; HeLa C6
T1 sequence (looked up): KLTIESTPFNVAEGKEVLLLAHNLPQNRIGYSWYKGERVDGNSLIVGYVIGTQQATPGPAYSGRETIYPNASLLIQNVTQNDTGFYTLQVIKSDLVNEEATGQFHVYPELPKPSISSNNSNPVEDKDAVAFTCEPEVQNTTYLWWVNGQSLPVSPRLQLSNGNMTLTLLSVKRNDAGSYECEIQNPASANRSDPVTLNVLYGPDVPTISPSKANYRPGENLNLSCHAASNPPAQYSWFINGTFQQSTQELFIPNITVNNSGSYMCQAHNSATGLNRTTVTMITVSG
Experiment: flow cytometry, HeLa-CEACAM6 transfectants, % positive cells

{"columns": ["BINDER", "binding result"],
 "data": [
  ["VH4/Vκ4 (antibody, IgG4, V domains shown, IgG4 (S241P), kappa) VH: EVQLLESGGGLVQPGGSLRLSCAASGFIFSSHGMSWVRQAPGKGLEWVSTISSGGTYTYYADSVKGRFTISRDNSKNTLYLQMNSLRAEDTAVYYCARHDFDYDAAWFAYWGQGTLVTVSS VL: EIVLTQSPATLSLSPGERATLSCRANSSVSYMYWYQQKPGQAPRPWIYLTSNRATGIPARFSGSGSGTDYTLTISSLEPEDFATYYCQQWSSNPPTFGQGTKLEIK", "no binding"],
  ["VH2/Vκ12 (antibody, IgG4, V domains shown, IgG4 (S241P), kappa) VH: EVQLLESGGGLVQPGGSLRLSCAASGFIFSSHGMSWVRQAPGKGLEWVATISSGGTYTYYPDSVKGRFTISRDNSKNTLYLQMNSLRAEDTAMYYCARHDFDYDAAWFAYWGQGTLVTVSS VL: EIVLTQSPATLSLSPGERATLSCRANSSVSYMYWYQQKPGQAPRPLIYLTSNRATGIPARFSGSGSGTDYTLTISSLEPEDFATYYCQQWSSNPPTFGQGTKLEIK", "no binding"],
  ["VH2/Vκ9 (antibody, IgG4, V domains shown, IgG4 (S241P), kappa) VH: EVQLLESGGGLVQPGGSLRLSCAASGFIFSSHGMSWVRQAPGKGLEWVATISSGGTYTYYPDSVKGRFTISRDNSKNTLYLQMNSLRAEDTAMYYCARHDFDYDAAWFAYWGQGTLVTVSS VL: EIVLTQSPATLSLSPGERATLSCRANSSVSYMYWYQQKPGQAPRPLIYLTSNRATGVPARFSGSGSGTDYTLTISSLEPEDFATYYCQQWSSNPPTFGQGTKLEIK", "no binding"]
]}
